system-name: T1, mouse ACVR2A (mouse, UniProt P27038 20-135, limits assumed); further: test concentration or dose not given here
T1 construct: coated antigen of the initial ELISA
T1 sequence (P27038 20-135 limits assumed): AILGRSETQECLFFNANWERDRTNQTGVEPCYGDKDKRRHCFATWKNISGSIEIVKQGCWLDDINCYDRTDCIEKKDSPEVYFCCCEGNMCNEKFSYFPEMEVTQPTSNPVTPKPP
procedure-summary: ELISA
recorded-metric: optical density (OD)
The figure you give is taken to be in OD; do not add the unit.

Quick one: optical density of 371_G11 (antibody, V domains shown, Group III) VH: EVQLLESGGGLVQPGGSLRLSCAASGFTFSSYGMNWVRQAPGKGLEWVSNINYNSGYTSYADSVKGRFTISRDNSKNTLYLQMNSLRAEDTAVYYCARGANWHDTALDYWGQGTLVTVSS VL: DIQMTQSPSSLSASVGDRVTITCRASQSILSYVNWYQQKPGKAPKLLIYAATSLASGVPSRFSGSGSGTDFTLTISSLQPEDFATYYCQQSYDSPLTFGGGTKVEIK ?
2.75

Quick one: optical density of 368_C02 (antibody, V domains shown, Group III) VH: EVQLLESGGGLVQPGGSLRLSCAASGFTFDDYSMNWVRQAPGKGLEWVANINYNGGYKGYADSVKGRFTISRDNSKNTLYLQMNSLRAEDTAVYYCARGANWHDTHLDYWGQGTLVTVSS VL: DIQMTQSPSSLSASVGDRVTITCRASQSISTYVNWYQQKPGKAPKLLIYAATSLASGVPSRFSGSGSGTDFTLTISSLQPEDFATYYCQQSYSTPLTFGGGTKVEIK ?
1.49

Quick one: optical density of 368_E12 (antibody, V domains shown, Group III) VH: EVQLLESGGGLVQPGGSLRLSCAASGFTFSDYGMNWVRQAPGKGLEWVAGINYNGGYTSYADSVKGRFTISRDNSKNTLYLQMNSLRAEDTAVYYCARGANWHDTHLDYWGQGTLVTVSS VL: DIQMTQSPSSLSASVGDRVTITCRASQSIVSYVNWYQQKPGKAPKLVIYAVTSRASGVPSRFSGSGSGTDFTLTISSLQPEDFATYYCQQSYDSPLTFGGGTKVEIK ?
1.55
